Assay: NCI Yeast Anticancer Drug Screen. Data for the bub3 strain (AID 167)
Conditions: S. cerevisiae bub3 mutant strain, at 50.0 µM, active compounds read high
Protocol: Growth inhibition of yeast strains with defined genetic alterations is measured as a screen for potential anti-cancer activity. Selected strains with alterations in DNA damage repair or cell cycle control were exposed to compounds and growth inhibition was measured relative to vehicle treated controls. The strain used in this assay is bub3
Compounds without any hit were thinned out: in the full panel of roughly 79,000, 15% have a hit.
Binary classification by growth inhibition, with -10% as an inclusive lower bound for Criterion met; all other cases are Criterion not met.

| molecule | qualitative label |
| --- | --- |
| O=C(Nc1ccccc1)OCCc1ccccc1 | Criterion met |
| CCO/C=C1\SC(=S)N(c2cccc(C)c2)C1=O | Criterion met |
| COCCCNC(=O)c1nnn2c1nc(N)c1cc(Cl)ccc12 | Criterion met |
| CC1C(=O)c2ccccc2CC1C(=O)O (stereo not drawn) | Criterion met |
| O=C(O)CNC(=O)c1ccccc1 | Criterion not met |
| CCCCCCCO | Criterion not met |
| CC1(C(=O)O)NC(C(=O)O)Cc2c1[nH]c1ccccc21 (stereo not drawn) | Criterion met |
| O=C1NC(=O)C2C(=O)NC(=O)C1C21CCc2ccccc21 (stereo not drawn) | Criterion not met |

* * *

Experiment: NCI Yeast Anticancer Drug Screen. Data for the mlh1 rad18 strain (AID 175)
Conditions: S. cerevisiae mlh1 rad18 strain growth inhibition; at 50.0 µM; active compounds read high
This is part of a sample that, as a whole, favours compounds with a hit. Of some 79,000 tested, about 15% had one in any assay.

| compound | units label | growth inhibition |
| --- | --- | --- |
| Nc1nc(N)c2cc(S(=O)(=O)c3cccc(C(F)(F)F)c3)ccc2n1 | % | -59.4 |
| CCCC(=O)c1cc(C)ccc1OC | % | -3.2 |
| CC1CCC2C(C)(C)C3CC12CC1OC13C (configuration not stated) | % | -14.5 |
| COC(=O)c1cccnc1 | % | -1.2 |
| COC(=O)c1ccccc1N(C)C | % | 0.9 |
| CSC(=N\N=C\c1ccc(N(C)C)cc1)/N=C/N(C)C | % | 25.1 |
| CC(C)CCCC(=O)O | % | -13.8 |

* * *

Experiment: NCI Yeast Anticancer Drug Screen. Data for the cln2 rad14 strain (AID 165);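 note: 0% = growth equal to vehicle treated cultures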
Details: S. cerevisiae cln2 rad14 strain, at 50.0 µM, active compounds read high
This is part of a sample that, as a whole, favours compounds with a hit. Of some 79,000 tested, about 15% had one in any assay.
property: growth inhibition (%)

| compound | property | units label | val |
| --- | --- | --- | --- |
| CCc1ccc(/C(C#N)=C/C=C/c2ccccc2)cc1 | growth inhibition | % | -2.9 |
| CCOC(=O)C(C#N)Cc1ccccc1 (stereo not drawn) | growth inhibition | % | -14.2 |
| O=[N+]([O-])c1ccc(S(=O)(=O)NN=C2CCCCC2)cc1 | growth inhibition | % | -31 |
| CC1CCCCN1C(=S)Nc1ccc(S(=O)(=O)N2CCCCC2)cc1 (stereo not drawn) | growth inhibition | % | -11.2 |
| C=CC(O)CCC (stereo not drawn) | growth inhibition | % | 1.3 |
| Cc1ccc(C)n1-c1ccsc1C(=O)NNC(=O)CCl | growth inhibition | % | 22.9 |
| O=C(c1ccc(Cl)cc1)c1ccccc1Cl | growth inhibition | % | -41.1 |
| Nc1nc(N)c2cc(S(=O)(=O)c3cccc(C(F)(F)F)c3)ccc2n1 | growth inhibition | % | 11.2 |
| O=c1cc(-c2ccccc2)[nH]c2c1CCCC2 | growth inhibition | % | -23.8 |
| CNc1nc(NC)c2cn[nH]c2n1 | growth inhibition | % | -9.25 |
| Cc1cc2ccccc2c(O)c1C#N | growth inhibition | % | -4.3 |
| O=C1N(C[P+](c2ccccc2)(c2ccccc2)c2ccccc2)CCCN1C[P+](c1ccccc1)(c1ccccc1)c1ccccc1 | growth inhibition | % | 14.9 |
| O=C(/C=C/C(=O)c1ccccc1)c1ccccc1 | growth inhibition | % | -31.4 |
| Cc1ccc(/C=C2\SC(=S)N(c3ccc(F)cc3)C2=O)o1 | growth inhibition | % | 17.4 |
| CCOC(=O)C(O)C(O)C(=O)OCC (stereo not drawn) | growth inhibition | % | -16.7 |
| CCCNc1ccc(C2=NCCCN2)cc1 | growth inhibition | % | 7.25 |
| OCCN1CCOCC1 | growth inhibition | % | 24.9 |
| Nc1ccc(C(=O)c2ccc(N)c(Br)c2)cc1Br | growth inhibition | % | -77.9 |
| O=C1C=CC2=C3c4cc(O)c(O)cc4CC3(O)COC2=C1O (stereo not drawn) | growth inhibition | % | -6.7 |
| O=C(Cc1ccc(OCc2ccccc2)cc1)NCc1ccc2c(c1)OCO2 | growth inhibition | % | -10.8 |
| Cc1cc(=O)cc(C)n1-c1ccccc1 | growth inhibition | % | 0.25 |
| OCC(O)C(O)C(O)C(O)/C=N/O (stereo not drawn) | growth inhibition | % | -6.7 |
| O=c1cc(-c2ccccc2)oc2c1ccc1ccccc12 | growth inhibition | % | -90.3 |
| Cc1ccc(C(=O)NC2c3ccccc3Oc3ccccc32)cc1 | growth inhibition | % | -12 |
| NC(=S)N/N=C/c1ccc(N)cc1 | growth inhibition | % | -1.35 |
| O=C(CCNNC(=O)c1ccncc1)NCc1ccccc1 | growth inhibition | % | -46 |
| Cc1cc(N)ccc1-c1ccc(N)cc1C | growth inhibition | % | -39 |
| C#Cc1cccc(NC(=O)c2ccc(Cl)cc2Cl)c1 | growth inhibition | % | 24.2 |

* * *

Experiment: NCI Yeast Anticancer Drug Screen. Data for the mec2-1 strain (AID 157)
Conditions: S. cerevisiae mec2-1 strain, at 50.0 µM, active compounds read high
Compounds without any hit were thinned out: in the full panel of roughly 79,000, 15% have a hit.
Label 1 when growth inhibition is at or above -10%; anything below gets -1.

| compound | qualitative label |
| --- | --- |
| N#Cc1ccc(NC(=O)Nc2cccc(C#N)c2)cc1 | -1 |
| C/C(=N\NC(=O)c1ccccc1N)c1ccccc1O | 1 |
| CCCCCC(C)(CC(=O)O)CC(=O)O | -1 |
| CCOC(=O)c1[nH]c(C)c(C(C)=O)c1C | -1 |
| O=c1[nH]cc(Cl)cc1O | 1 |
| O=P(O)(O)OCC(O)CO (stereo not given) | 1 |
| COc1ccccc1N=Nc1c(O)ccc2cc(S(=O)(=O)O)ccc12 | 1 |
| Nc1ccc(N)c([N+](=O)[O-])c1 | -1 |
| CC(C)OC(=O)c1cc(NC(=S)OC(C)C)ccc1Cl | 1 |
| O=C(Cc1nc2ccc([N+](=O)[O-])cc2nc1CC(=O)c1cccnc1)c1cccnc1 | 1 |

* * *

# growth inhibition values compiled below
Assay: NCI Yeast Anticancer Drug Screen. Data for the mec2-1 strain (AID 157)
Details: S. cerevisiae mec2-1 strain, at 50.0 µM, active compounds read high
The panel holds about 79,000 compounds, 15% with a hit somewhere; the sample as a whole holds those more often.

| compound | growth inhibition [%] |
| --- | --- |
| O=C(NN=C1CCCCC1)C(=O)NN=C1CCCCC1 | 13.6 |
| COc1cc([C@@H]2c3cc4c(cc3[C@H](O)[C@H]3COC(=O)[C@H]23)OCO4)cc(OC)c1OC | -8.55 |
| OC(c1ccccn1)C(O)c1ccccn1 (centres undefined) | -4.45 |
| COc1ccc(C)cc1OC | 12.9 |

* * *

Test: NCI Yeast Anticancer Drug Screen. Data for the sgs1 mgt1 strain (AID 161);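 note: 0% = growth of cultures given vehicle only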
Details: S. cerevisiae sgs1 mgt1 strain, at 50.0 µM, active compounds read high
Compounds without any hit were thinned out: in the full panel of roughly 79,000, 15% have a hit.
rule met means recorded growth inhibition is -10% or above; rule not met means it is below -10%.

| molecule | qualitative label |
| --- | --- |
| O=[N+]([O-])c1ccc(Sc2ccncn2)c([N+](=O)[O-])c1 | rule met |
| CC1CCC(C(=O)O)N1 (configuration not stated) | rule met |
| CN(C)C(C)(C)CC(C)(C)C | rule met |
| O=C(c1ccccc1)C1CCC1 | rule met |
| CC(=O)c1c[nH]c2ccccc12 | rule not met |
| C=C1CC/C=C(\C)C(=O)C[C@@H]2[C@@H]1CC2(C)C | rule met |
| CCOC(=O)c1cc(/C=C/c2ccc(Cl)cc2Cl)on1 | rule not met |
| COC(=O)/C=C/C(=O)NC(N)=O | rule not met |
| Cc1ccccc1C1N=C2Oc3ccccc3C=C2C(=O)N1 (configuration not stated) | rule met |
| CN(C)c1ccc(C(c2ccc(O)cc2)c2ccc(N(C)C)cc2)cc1 | rule not met |
| CC(C)NC(=O)OCc1c(COC(=O)NC(C)C)c(-c2ccc(Cl)c(Cl)c2)n2c1SCC2 | rule met |
| CC(C)OC(C(=O)O)c1ccccc1 (configuration not stated) | rule met |
| O=c1cc(-c2ccccc2)[nH]c2c1CCCC2 | rule not met |
| CCOc1ccc2[nH]c(=S)sc2c1 | rule met |
| NNc1ccccc1C(=O)O | rule met |
| COCCOCCCl | rule not met |

src = PubChem BioAssay (NCI)
